tested on: EV-71; assay: NIAID Antiviral Program for Pandemics primary assay (CPE/Tox), EV-71; details: Enterovirus A, EV71|EVA71, read-out: EC50 against EV-A71, text; primary cytopathic effect assay
assay metric: pEC50
Remember the convention: pEC50 equals -log10 of concentration in molar.

For Cc1ccc2[nH]c(-c3ccc(NC(=O)c4cccs4)cc3)nc2c1 on EV-71, measured pEC50 was 5.38

====

experiment: in vitro; settings: African green monkey, CC50 (μM)
Class field: derived from CC50 at 3 days; ranges small value = under 100 µM, mid value = from 100 µM up to 400 µM, large value = 400 µM and over

Lab note: which band did O=C(Nc1ccc(-c2nc3ccccc3[nH]2)cc1)c1cc([N+](=O)[O-])ccc1N1CCOCC1 land in?
large value

Lab note: which band did O=C(Nc1ccc(-c2nc3ccccc3[nH]2)cc1)c1cccs1 land in?
mid value

Lab note: which band did O=C(Nc1cccc(-c2nc3ccccc3[nH]2)c1)c1ccco1 land in?
small value

Lab note: which band did CC(=O)Nc1ccc(-c2nc3cc(C)ccc3[nH]2)cc1 land in?
large value

Lab note: which band did Cc1ccc2[nH]c(-c3ccc(NC(=O)c4ccc(C)c(C)c4)cc3)nc2c1 land in?
mid value

Lab note: which band did O=C(Cc1cccc2ccccc12)Nc1ccc(-c2nc3ccccc3[nH]2)cc1 land in?
small value

Lab note: which band did CC(=O)Oc1ccc(C(=O)Nc2ccc(-c3nc4ccccc4[nH]3)cc2)cc1 land in?
mid value

Lab note: which band did CC(=O)Nc1ccc(-c2nc3ccc(Cl)cc3[nH]2)cc1 land in?
large value

Lab note: which band did O=C(Nc1ccc(-c2nc3ccccc3o2)cc1)c1ccc(NC(=O)c2cc3ccccc3o2)cc1 land in?
large value

Lab note: which band did Nc1nc(N)nc(COC(=O)CCc2c(-c3ccc(F)cc3)[nH]c3ccc(F)cc23)n1 land in?
large value

Lab note: which band did Cc1ccc2[nH]c(-c3ccc(NC(=O)c4cccc(Br)c4)cc3)nc2c1 land in?
large value

Lab note: which band did O=C(CCc1ccccc1)Nc1ccc(-c2nc3cc4ccccc4cc3[nH]2)cc1 land in?
mid value

Lab note: which band did O=C(Nc1ccc(-c2nc3ccccc3[nH]2)cc1)C1CCCC1 land in?
mid value

Lab note: which band did Cc1cccc(C(=O)Nc2ccc(-c3nc4ccccc4[nH]3)cc2)c1 land in?
large value

Lab note: which band did O=C(CSCc1ccc([N+](=O)[O-])cc1)Nc1ccc(-c2nc3ccccc3[nH]2)cc1 land in?
large value

Lab note: which band did O=C(Nc1ccc(-c2nc3ccccc3[nH]2)cc1)c1cccc(F)c1 land in?
small value

====

assay: NIAID Antiviral Program for Pandemics primary assay (CPE/Tox), EV-71; conditions: CC50 µM, primary assay; EV-71; Neutral Red (CPE/Tox)
assay metric: CC50 (µM)
# value in µM; strip the unit string

The compound Cc1ccc2[nH]c(-c3ccc(NC(=O)c4cccs4)cc3)nc2c1 showed CC50 equal to 42

====

Give measured Selectivity Index for each item. Keep answers brief.
tested on: EV-A71; assay: CPE inhibition assay (Cell Titer Glo) against EV-A71 in Vero cells; assay type: cell-based, Enterovirus A71; settings: Table 13, Scaffold 4; CC50/IC50

The compound O=C(Nc1cccc(-c2nc3ccccc3[nH]2)c1)c1ccco1 [Compound 62] showed Selectivity Index equal to 1.62

The compound Cc1ccc2[nH]c(-c3cccc(NC(=O)c4ccc(Br)o4)c3)nc2c1 [Compound 64] showed Selectivity Index equal to 0.61

The compound O=C(Nc1cccc(-c2nc3ccccc3[nH]2)c1)c1cc2ccccc2o1 [Compound 67] showed Selectivity Index equal to 2.89

The compound c1ccc2[nH]c(-c3ccc(-c4nc5ccccc5[nH]4)cc3)nc2c1 [Compound 65, 2,2′-(1,4-phenylene)bis-1H-benzimidazole] showed Selectivity Index equal to 174.52

The compound Cc1ccc(-c2nc3ccccc3[nH]2)cc1NC(=O)c1cc2ccccc2o1 [Compound 66] showed Selectivity Index equal to 11.11

The compound Cc1ccc2nc(-c3cccc(NC(=O)c4ccco4)c3)[nH]c2c1 [Compound 63] showed Selectivity Index equal to 5.28

The compound Nc1ccc(-c2nc3ccc(Cl)cc3[nH]2)cc1 [Compound 61, 4-(6-chloro-1H-benzimidazol-2-yl)aniline] showed Selectivity Index equal to 2.46
